target: human CYP11B2 (Homo sapiens, UniProt P19099); construct: expressed in transfected cells; assay: Inhibition of hCYP11B2 in transfected V79 cells; format: cell-based; settings: hamster V79 cells expressing human CYP11B2; substrate 11-deoxycorticosterone 200 nM
Sequence (P19099 25-503): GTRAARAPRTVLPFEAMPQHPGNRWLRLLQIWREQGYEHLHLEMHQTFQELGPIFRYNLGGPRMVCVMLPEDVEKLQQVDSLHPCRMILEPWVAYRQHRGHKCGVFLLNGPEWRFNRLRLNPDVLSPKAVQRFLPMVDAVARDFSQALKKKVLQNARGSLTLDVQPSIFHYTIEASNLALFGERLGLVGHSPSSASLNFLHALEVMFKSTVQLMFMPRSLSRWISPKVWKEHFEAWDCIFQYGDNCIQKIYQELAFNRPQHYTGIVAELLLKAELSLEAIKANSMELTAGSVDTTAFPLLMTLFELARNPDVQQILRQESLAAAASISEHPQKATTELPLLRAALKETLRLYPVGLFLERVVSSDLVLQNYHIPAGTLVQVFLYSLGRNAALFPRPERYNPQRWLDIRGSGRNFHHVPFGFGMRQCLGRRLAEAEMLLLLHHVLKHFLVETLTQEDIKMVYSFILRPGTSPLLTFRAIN
Field 'label' (enum: true (1) / false (0)). Set to true (1) when IC50 is strictly under 7 nM; else false (0).

COc1cccc(CC(=O)N2CCc3c(-c4ccc(C#N)cc4)cncc32)c1: true (1)
Cc1ccccc1CC(=O)N1CCc2c(-c3ccc(C#N)cc3)cncc21: true (1)

Then there is this compound:
QUERY: Does the reported IC50 of the following compound sit strictly below 7 nM? N#Cc1ccc(-c2cncc3c2OCCN3C(=O)Cc2ccc(Cl)cc2)cc1
RESULT: false (0)

* * *

target: human CYP11B2 (Homo sapiens, UniProt P19099); assay: Inhibition of hCYP11B2 in transfected V79 cells; settings: hamster V79 cells expressing human CYP11B2; substrate 11-deoxycorticosterone 200 nM
pIC50: −log10 of the molar value.
Reported pIC50 maps to class as: category 1 (below 8), category 2 (8 to below 9), category 3 (9 or more)

// below: answered molecules
N#Cc1ccc(-c2cncc3c2SCCN3S(=O)(=O)c2cccs2)cc1 [S24]: category 3
Cc1ccc(S(=O)(=O)N2CCOc3c(-c4ccc(C#N)cc4)cncc32)cc1 [O4]: category 3
Cc1ccccc1C(=O)N1CCc2c(-c3ccc(C#N)cc3)cncc21 [C36]: category 1
N#Cc1ccc(-c2cncc3c2OCCN3C(=O)C2CN(c3ccc(F)cc3)C2)cc1 [O85]: category 2
N#Cc1ccc(-c2cncc3c2CCN3S(=O)(=O)c2ccc3ccccc3c2)cc1 [C12]: category 3

QUERY: Which class is correct for the following molecule? N#Cc1ccc(-c2cncc3c2OCCN3C(=O)C23CC(Nc4cccc(F)c4)(C2)C3)cc1 [O71]
RESULT: category 1

QUERY: Any idea which band COc1cccc(C(=O)N2CCc3c(-c4ccc(C#N)cc4)cncc32)c1 [C26] is in?
RESULT: category 2

* * *

pIC50 listing for selected molecules.
molecular target: human CYP11B2 (Homo sapiens, UniProt P19099); experiment: Inhibition of hCYP11B2 in transfected V79 cells; settings: hamster V79 cells expressing human CYP11B2; substrate 11-deoxycorticosterone 200 nM
Quick note: pIC50 values are minus log10 of concentrations in mol/L.

COc1cccc(C(=O)N2CCSc3c(-c4ccc(C#N)cc4)cncc32)c1: 7.96
Cc1ccccc1C(=O)N1CCSc2c(-c3ccc(C#N)cc3)cncc21: 7.19
N#Cc1ccc(-c2cncc3c2OCCN3C(=O)c2cccnc2)cc1: 6.96
COc1cccc(C(=O)N2CCc3c(C4=CCN(C#N)CC4)cncc32)c1: 8.52
COc1ccc(CN2CC(C(=O)N3CCOc4c(-c5ccc(C#N)cc5)cncc43)C2)cc1: 9.00
COc1ccc(S(=O)(=O)N2CCc3c(-c4ccc(C#N)cc4)cncc32)cc1: 9.80

Here is the next item to consider.
QUERY: Look up pIC50: N#Cc1ccc(-c2cncc3c2OCCN3S(=O)(=O)c2cccc(Cl)c2)cc1
RESULT: 9.33

* * *

target: UniProtKB P19099; assay: Inhibition of hCYP11B2 in transfected V79 cells; conditions: hamster V79 cells expressing human CYP11B2; substrate 11-deoxycorticosterone 200 nM
assay-metric: pIC50
Please express pIC50 as -log10 of the molar concentration.

Cc1ccc(CC(=O)N2CCOc3c(-c4ccc(C#N)cc4)cncc32)cc1 [O42]: 9.22
N#Cc1ccc(-c2cncc3c2OCCN3S(=O)(=O)c2cccc(F)c2)cc1 [O3]: 9.85
N#Cc1ccc(-c2cncc3c2CCN3S(=O)(=O)c2cccc([N+](=O)[O-])c2)cc1 [C9]: 9.52
Cc1cccc(S(=O)(=O)N2CCOc3c(-c4ccc(C#N)cc4)cncc32)c1 [O5]: 9.64
N#Cc1ccc(-c2cncc3c2SCCN3C(=O)c2cccc(F)c2)cc1 [S4]: 7.46

QUERY: # get_value(readout='pIC50', item= N#Cc1ccc(-c2cncc3c2SCCN3C(=O)c2ccc(C(F)(F)F)cc2)cc1 [S88] )
RESULT: 8.17

QUERY: Which pIC50 reading was recorded for the compound N#Cc1ccc(-c2cncc3c2CCN3S(=O)(=O)c2ccc(Cl)cc2)cc1 [C13] ?
RESULT: 9.22

QUERY: If you can, please state the reported pIC50 value of N#Cc1ccc(-c2cncc3c2CCN3C(=O)Cc2ccccc2F)cc1 [C67] .
RESULT: 8.19

* * *

target: human CYP11B2 (Homo sapiens, UniProt P19099); assay: Inhibition of hCYP11B2 in transfected V79 cells; conditions: hamster V79 cells expressing human CYP11B2; substrate 11-deoxycorticosterone 200 nM
Collected IC50 values appear next to each entry.
Respond numerically; units are nM and should not be typed.

N#Cc1ccc(-c2cncc3c2OCCN3C(=O)C2CN(c3cccc(C#N)c3)C2)cc1: 0.8
CC(C)(C)C(=O)N1CCc2c(-c3ccc(C#N)cc3)cncc21: 45
N#Cc1ccc(-c2cncc3c2SCCN3S(=O)(=O)C2CN(Cc3ccc(F)cc3)C2)cc1: 0.4

Query compound follows.
QUERY: Endpoint output: IC50 of N#Cc1ccc(C(=O)N2CC(S(=O)(=O)N3CCSc4c(-c5ccc(C#N)cc5)cncc43)C2)cc1 . Value?
RESULT: 1.4
